- System: 786-0 renal
- protocol.description: NCI-60 one-dose screen, 48 h
- details: 10 µM unless noted
This is part of a sample that, as a whole, favours compounds with a hit. Of some 83,000 tested, about 20% had one in any assay. The source made the active and inactive calls. How the source made its calls: active means growth percent below 10; inactive means the rest.
Use one of these outcomes when replying: YES = active, NO = inactive

# input Give the logged outcome of this assay for the following compound: `O=C(/C(Cl)=N/O)c1ccc(-c2ccccc2)cc1`
# output YES

# input Give the logged outcome of this assay for the following compound: `C/C(=N\NC(=S)N1CC2CCC(CC2)C1)c1ccccn1`
# output YES

# input Give the logged outcome of this assay for the following compound: `CCCCCCCCc1cc(Cl)c(O)c(Cl)c1`
# output NO

# input Give the logged outcome of this assay for the following compound: `O=C1/C(=C/c2ccccc2)CCC/C1=C\c1ccccc1`
# output NO

# input Give the logged outcome of this assay for the following compound: `CC[n+]1ccc(Nc2ccc(NC(=O)c3ccc(Nc4cc[n+](CC)c5ccc([N+](=O)[O-])cc45)cc3)cc2)cc1`
# output NO

# input Give the logged outcome of this assay for the following compound: `CN(C)c1ccc(/C=C/c2cc[n+](C)c(/C=C/c3ccc(N(C)C)cc3)c2)cc1`
# output NO

# input Give the logged outcome of this assay for the following compound: `S=c1[nH]c2cc(Cl)ccc2s1`
# output NO

# input Give the logged outcome of this assay for the following compound: `Cc1nn(CCO)c(C)c1N=[N+]([O-])c1c(C)nn(CCO)c1C`
# output YES

# input Give the logged outcome of this assay for the following compound: N#CC1c2ccccc2C=CN1C(=O)CCCl (centres undefined)
# output NO

# input Give the logged outcome of this assay for the following compound: `Cc1cc2cccnc2c2ncccc12`
# output NO

# input Give the logged outcome of this assay for the following compound: `O=C(C[P+](c1ccccc1)(c1ccccc1)c1ccccc1)c1ccccc1`
# output NO

# input Give the logged outcome of this assay for the following compound: `CCOc1ccc(Nc2nc3c(s2)C(=O)c2ccccc2C3=O)cc1`
# output NO

# input Give the logged outcome of this assay for the following compound: `O=[n+]1c2ccccc2n([O-])c2cc(Cl)ccc21`
# output NO

# input Give the logged outcome of this assay for the following compound: `COc1ccc(/C=C2/C(=O)ON=C2C)cc1`
# output NO

# input Give the logged outcome of this assay for the following compound: `CCCCOS(=O)(=O)c1ccccc1`
# output NO

# input Give the logged outcome of this assay for the following compound: `O=C(c1ccccc1)N(CCCl)C(=O)N(CCCl)C(=O)c1ccccc1`
# output NO

# input Give the logged outcome of this assay for the following compound: COc1cccc2c1C(=O)c1c(O)c3c(c(O)c1C2=O)C[C@@](O)(C(=O)CO)C[C@@H]3OC1CC(OC(C)=O)C(OC(C)=O)C(C)O1 (some centres undefined)
# output YES

# input Give the logged outcome of this assay for the following compound: `O=C1Nc2ccc(Br)cc2C1=O`
# output NO

# input Give the logged outcome of this assay for the following compound: `Cc1cc(C(=O)c2ccc(Cl)cc2)ccc1O`
# output NO

# input Give the logged outcome of this assay for the following compound: `O=[N+]([O-])/C(=C/c1ccccc1)c1ccccc1`
# output NO

# input Give the logged outcome of this assay for the following compound: `CN(C)c1ccc(C(=C2C=CC(=[N+](C)C)C=C2)c2ccc(N(C)C)cc2)cc1`
# output YES

# input Give the logged outcome of this assay for the following compound: `COc1ccc2nc3cc(Cl)ccc3c(NCCCCCN3CCCCC3)c2c1`
# output YES

# input Give the logged outcome of this assay for the following compound: `COc1ccc(NC(=O)/C(=C/N2C(=O)/C(=C/c3ccc(OC)c(OC)c3)NC2=S)C(C)=O)cc1`
# output NO

# input Give the logged outcome of this assay for the following compound: `CSc1nc(C)c(C(=O)CCN2CCN(c3ccccn3)CC2)s1`
# output NO
